target.system: Receptor-type tyrosine-protein kinase FLT3 (Homo sapiens);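 note: values are mean percent inhibition of FLT3 kinase activity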
measurement.context: at 1 µM
# inhibition listing for each entry below
Give a bare numeral; the unit % is implied.

Field: example entries. Status: answers known.
>>> value_observed("O=C(Nc1n[nH]c2cc(-c3ccc(F)cc3)ccc12)C1CC1")
3.69
>>> value_observed("CCc1nn2ncccc2c1-c1ccnc(NC2CC2)n1")
3.41
>>> value_observed("Fc1ccc(-c2nn3ncccc3c2-c2ccnc(Nc3ccc4c(c3)OCCO4)n2)cc1")
6.52
>>> value_observed("CC(=O)NCc1cccc(C#Cc2cncnc2Nc2ccc(OCc3cccc(F)c3)c(Cl)c2)c1")
-1.41
>>> value_observed("NC(=O)c1sc(-n2cnc3ccc(C(F)(F)F)cc32)cc1OCc1ccccc1Br")
1.02
>>> value_observed("CC(C)COC(=O)c1ccc2c(c1)/C(=C/Nc1ccc(S(N)(=O)=O)cc1)C(=O)N2")
56
>>> value_observed("CNC(=O)c1cc(-c2ccc(F)cc2)cc(-c2ccc(S(=O)(=O)N3CCCC3)cc2)c1N")
1.85
>>> value_observed("O=C(O[C@H]1CN[C@H](C#Cc2cc3ncnc(Nc4ccc(Cc5ccccc5)cc4)c3s2)C1)N1CCOCC1")
0.34

Determine its reported inhibition: COc1cc2c(cc1Nc1nc(Nc3ccsc3C(N)=O)c3cc[nH]c3n1)N(C(=O)CN(C)C)CCC2(C)C
13

---

target.system: Proto-oncogene tyrosine-protein kinase receptor Ret (Homo sapiens);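 note: each listed value is an averaged inhibition figure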
measurement.context: at 1 µM
# inhibition listing for each entry below
Give a bare numeral; the unit % is implied.

Field: example entries. Status: answers known.
>>> value_observed("CC(C)COC(=O)c1ccc2c(c1)/C(=C/Nc1ccc(S(N)(=O)=O)cc1)C(=O)N2")
78
>>> value_observed("c1ccc(-c2nc3n(c2-c2ccc4c(c2)OCO4)CCC3)nc1")
4.44
>>> value_observed("Fc1cccc(COc2ccc(Nc3ncnc4sc(-c5ccco5)cc34)cc2Cl)c1")
5.02
>>> value_observed("COc1ccc(-c2oc3ncnc(N)c3c2-c2ccc(NC(=O)Nc3cc(C(F)(F)F)ccc3F)cc2)cc1")
93.6
>>> value_observed("c1ccc(COc2ccc(Nc3ncnc4ccc(-c5ccco5)cc34)cc2)cc1")
2.96

Determine its reported inhibition: CNC(=O)c1cccc(C#Cc2cncnc2Nc2ccc(OCc3cccc(F)c3)c(Cl)c2)c1
11.6

Determine its reported inhibition: Cc1cccc(Nc2ncc(-c3ccccc3)o2)c1
7.33

Determine its reported inhibition: Clc1ccc(-c2nn3ncccc3c2-c2ccnc(Nc3ccccc3)n2)cc1
42

Determine its reported inhibition: CS(=O)(=O)CCNCc1ccc(-c2ccc3ncnc(Nc4ccc(OCc5ccccc5)c(C(F)(F)F)c4)c3c2)o1
2.3

Determine its reported inhibition: CCc1nn2ncccc2c1-c1ccnc(NC2CC2)n1
2.46

Determine its reported inhibition: COc1ccc2[nH]c3c4[nH]c5ccc(OC)cc5c4c4c(c3c2c1)C(=O)NC4=O
77.3

---

target.system: Rho-associated protein kinase 2 (Homo sapiens) (UniProt O75116);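 note: values are averaged inhibition readings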
Sequence (O75116 whole entry, looked up): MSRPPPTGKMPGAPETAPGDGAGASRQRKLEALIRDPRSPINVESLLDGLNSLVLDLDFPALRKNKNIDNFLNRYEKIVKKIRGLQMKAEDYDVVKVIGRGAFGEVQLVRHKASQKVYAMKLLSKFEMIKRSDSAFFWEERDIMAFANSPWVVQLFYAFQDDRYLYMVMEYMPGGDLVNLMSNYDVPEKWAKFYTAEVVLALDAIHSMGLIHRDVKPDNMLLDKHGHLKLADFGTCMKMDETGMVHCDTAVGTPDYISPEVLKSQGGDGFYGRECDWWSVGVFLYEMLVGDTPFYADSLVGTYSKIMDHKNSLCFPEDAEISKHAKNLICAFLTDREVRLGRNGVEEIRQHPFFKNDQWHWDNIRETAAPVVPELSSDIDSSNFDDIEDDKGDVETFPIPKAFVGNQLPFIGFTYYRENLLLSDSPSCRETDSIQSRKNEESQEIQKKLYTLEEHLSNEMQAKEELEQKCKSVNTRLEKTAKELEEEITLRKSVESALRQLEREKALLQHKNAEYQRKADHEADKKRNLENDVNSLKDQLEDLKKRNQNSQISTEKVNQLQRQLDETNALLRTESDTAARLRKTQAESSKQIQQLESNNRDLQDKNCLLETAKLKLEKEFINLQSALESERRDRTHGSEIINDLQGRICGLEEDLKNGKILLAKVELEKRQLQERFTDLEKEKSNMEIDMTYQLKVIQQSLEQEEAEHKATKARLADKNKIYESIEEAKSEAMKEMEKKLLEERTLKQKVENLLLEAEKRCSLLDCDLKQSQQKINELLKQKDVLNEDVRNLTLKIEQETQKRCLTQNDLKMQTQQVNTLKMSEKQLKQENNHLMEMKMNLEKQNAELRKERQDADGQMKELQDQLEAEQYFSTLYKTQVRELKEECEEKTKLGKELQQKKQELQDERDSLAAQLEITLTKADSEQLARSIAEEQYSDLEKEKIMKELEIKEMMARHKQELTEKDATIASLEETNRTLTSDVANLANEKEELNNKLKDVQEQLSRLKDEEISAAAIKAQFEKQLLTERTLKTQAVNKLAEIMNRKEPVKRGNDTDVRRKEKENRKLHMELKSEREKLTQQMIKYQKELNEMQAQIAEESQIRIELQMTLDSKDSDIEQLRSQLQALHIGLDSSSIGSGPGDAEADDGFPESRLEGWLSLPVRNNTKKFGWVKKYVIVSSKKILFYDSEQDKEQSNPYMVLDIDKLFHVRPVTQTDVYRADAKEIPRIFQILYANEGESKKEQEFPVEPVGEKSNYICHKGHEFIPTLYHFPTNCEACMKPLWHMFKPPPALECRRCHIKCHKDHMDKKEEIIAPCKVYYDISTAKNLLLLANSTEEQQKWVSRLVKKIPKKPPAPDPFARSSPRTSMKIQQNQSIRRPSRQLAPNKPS
measurement.context: at 0.1 µM
experimental.endpoint: inhibition (%)
Give a bare numeral; the unit % is implied.

Determine its reported inhibition: CC(C)(CO)CNC(=O)c1ccc2c(c1)/C(=N/Nc1ccc(S(N)(=O)=O)cc1)C(=O)N2
0.95

Determine its reported inhibition: CCn1c(-c2nonc2N)nc2cnc(Oc3cccc(NC(=O)c4ccc(N(C)C)cc4)c3)cc21
85.5

Recorded values, source ChEMBL document CHEMBL1961873.
